- SUBJECT_OF_TEST: TDP-43 (Homo sapiens, UniProt Q13148 1-414)
- Sequence (Q13148 whole entry): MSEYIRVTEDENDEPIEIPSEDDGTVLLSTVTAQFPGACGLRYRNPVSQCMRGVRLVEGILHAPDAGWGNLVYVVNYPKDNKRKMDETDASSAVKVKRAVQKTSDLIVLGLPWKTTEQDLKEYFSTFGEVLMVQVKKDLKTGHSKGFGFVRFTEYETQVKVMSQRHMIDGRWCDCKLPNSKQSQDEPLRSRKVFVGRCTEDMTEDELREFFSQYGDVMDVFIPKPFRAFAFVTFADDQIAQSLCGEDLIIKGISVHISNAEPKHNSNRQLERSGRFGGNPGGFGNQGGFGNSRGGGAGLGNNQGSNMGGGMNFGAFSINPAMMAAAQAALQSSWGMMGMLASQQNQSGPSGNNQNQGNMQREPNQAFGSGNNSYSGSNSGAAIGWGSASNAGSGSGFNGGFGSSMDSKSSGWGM
- EXPERIMENT_SUMMARY: RNA Bind-n-Seq with designed 260-mer pool; 25 mM Tris-HCl, 150 mM KCl, 3 mM MgCl2, BSA (printed 500 mg/mL), 20 units/mL SUPERase IN; pH not stated; 500 nM RNA pool, 1 h, 4 C; TDP-43 5, 50, 500 nM; high values mean tight binding
- PARTICULARS: protein: recombinant; tags: SBP (GST cleaved off with PreScission; pGEX-GST-SBP)
Whole data set: some 9,900 sequences, median “r (bound/input frequency ratio)” near 0.7, cut for the highest 2% near 6.5. What follows is part of a selection rich in the highest values, with near analogues and random picks from the rest.
# binding signal per record follows
READOUT_LABEL: binding signal

BINDER	TEST_RESULT
ENSMUSG00000061578.1206|Ksr2 (ssRNA) RNA: GGGAGUUCUACAGUCCGACGAUCGCUUCGAUAUCCGCAUGCUAUAUGGACACACUAGAAAGCCCAUCCUAGGUCUUUCCAUGGUCUCUCACACCCCUGUCCCCGUCCCCUCCACCCCCCGGCAGCAUGCUUCACUCUAUGAAUGAGCCGCUGGGAUAUUGACAUGGAGAUGUGUUGAUGGAAAAAGCCUCCACACCCAACAUAACUCUCCAGAGAGAUAUUGAAAGUGAUGGGCAGAGAGUCUGACAAUGACCCAGGGGUCAUUGUGAGUCCUAGGCUGAAUCUGUAAUGGGGUCCAAAGUGCCUCUUGCGGUCGCACUAGUGUGGAAUUCUCGGGUGUCAAGG	0.481 R (bound/input frequency ratio)
ENSMUSG00000061578.113|Ksr2|98:102;184:189;252:256 (ssRNA) RNA: GGGAGUUCUACAGUCCGACGAUCGCUUCGAUAUCCGCAUGCUACUCCCAUUUUGUAAGAACACUGUUCUAACUCACCUCAUGCCCACGCUACCCUGGGCAACUGGAGAACACCAUAGCGUUUCAGCUGAUGUGACAUUUGCACACACCUUUACCAGUUCACCAUCAUUCAUGGCUUCCCCCAAAGUCCCGAGUCCUGAGAACCGGGGCUGUGGCAAGAGAGUUCUGCACACAUCUCUCUGUGGGGCUAGCAAUGCCGGGGUUAAGUUCUCCCUCGGUGAUGGAGACGGUCCUGGCAUACCAUGCUCUUGCGGUCGCACUAGUGUGGAAUUCUCGGGUGUCAAGG	0.484 R (bound/input frequency ratio)
ENSMUSG00000028439.16|Fam219a (ssRNA) RNA: GGGAGUUCUACAGUCCGACGAUCGCUUCGAUAUCCGCAUGCUAAUUCAGUAGUGGGCGGGGUCGCCGCGGUGCACGGGGCGCUGACCUGGGCCCGGUGGGAUGCAGCAGGAGAGACCCCUACCCUGCUGGUCCACUGGUCCCCAGCCCCGCGCCUCUUAGAGCCGCCAACCUCGUAACAGUCAUUGCUUCCUCCUAUGGUAGGACGUGUACCUCUGUGUGUUCAAGGAGCCGGAGAAACCAAAACCGGGUCUGUCUCCAGCCCCGGGGCUGAGGAGGGGUGGGCACUGUUUGUUCGGUUACUUCUCUUGCGGUCGCACUAGUGUGGAAUUCUCGGGUGUCAAGG	0.466 R (bound/input frequency ratio)
ENSMUSG00000061578.705|Ksr2 (ssRNA) RNA: GGGAGUUCUACAGUCCGACGAUCGCUUCGAUAUCCGCAUGCUAUUGAGGUGCCUUCCUGUAGUCUCUUGUGUCAUCUUCUUCUAAGACCACUAAUAACACCGCCUUUCUCCUUGAUCCGGGCCUCAGACCUCUUCAGAGAUUCUUUCUCUGAAUGUACGUGGGGGACUCCAACAGAUGUUGGGAGAAGACUCAAUAUGAGCAUACGGGGUCAUUGUUCAAUCCUGUAUCAAGACCUUGGAGUUGUCUAAGGCUGUGGGUUUUAAAUACCUGCUGCAGGCCUCCCAUCUCUGGCUCUUUGUUUCCUCUUGCGGUCGCACUAGUGUGGAAUUCUCGGGUGUCAAGG	0.309 R (bound/input frequency ratio)
ENSMUSG00000061578.815|Ksr2 (ssRNA) RNA: GGGAGUUCUACAGUCCGACGAUCGCUUCGAUAUCCGCAUGCUAUGGGACUCUUUUUAUGAGGAACCAGUCCUGUUGAAUCGGGGUGCUCUGUAUUAGUUAUUUUUGUAACUUGUGAUUGUAACCAAAUGCCCGAUAGAAACAGCAUUCUGGCUCACAGUUUCAAAGGGCUCAGUCCAUAGCUGCCUGACUCUGUGUUUCUAGGCCUUUCUUGAGGCAAGUGUUCAUCAUGAUAGUGUGAGGGUGAGGAGGAGUUUCUUCAUGGCAAACAGGAAGCAAAGAGCAAUACAGGAAAAGGUCAGGGGCUCUUGCGGUCGCACUAGUGUGGAAUUCUCGGGUGUCAAGG	2.37 R (bound/input frequency ratio)
ENSMUSG00000058297.20|Spock2|131:135;139:152;161:172;186:192;201:210;216:241 (ssRNA) RNA: GGGAGUUCUACAGUCCGACGAUCGCUUCGAUAUCCGCAUGCUACCUCGGCAGGCCAGGGUGCCGACGGCCAGAAAGACAGGCCAGAAGAGACCUGGACAACAGCAGGCAACUUAGCAAAUGGAUCCGGAAGUCAGUGCGGAGGACCCUGGCUCCAGUGGGGGAGGACUGGGGACACACGCUACACACAUACACACAUAUGAGAACACACACAUACAUGUGAGAUGUGACACACACAUGUGAGAACACACAUACUGAGAACACACACACACACACACACACACACAUGUGAGUCACCCAAAGGUCUCUUGCGGUCGCACUAGUGUGGAAUUCUCGGGUGUCAAGG	1.82 R (bound/input frequency ratio)
ENSMUSG00000028439.351|Fam219a (ssRNA) RNA: GGGAGUUCUACAGUCCGACGAUCGCUUCGAUAUCCGCAUGCUACCCCCCACCGCAUCCCCACUGGGCUCUUUGACUCACCCUUCUAGAACAUGGGUGCCUCCUCUCUUUAGACUGCUGCCUUUGCCUCUGACUUCCUGUGGGAUUGAGAGCCAAGGGCCAGUGCCCUUGUGAGCGCACUAGUUCCGAAGCAGGCAAGGGCAUUAGGUGGUAUAUACAUAGCGGGUAGGGGUAGGAAGCUGGCAGCCUGCAGCUUCCAAGUCCAAGGAGAGCACACAGUUCCCUCCUUCCCUGCCUGGAAGUUGCUCUUGCGGUCGCACUAGUGUGGAAUUCUCGGGUGUCAAGG	0.423 R (bound/input frequency ratio)
